tested on: HEK-293T; test: Multiplex assay against HEK293T; type: toxicity, cell-based; settings: human, 24 h, 1 µM, compound concentration 1 uM, replicate 2
The entries below come with measured Population Apoptotic (%) values attached.
Field format: number, assumed %, no unit text.

// worked examples, Population Apoptotic (%) included
| compound | system | unit | recordedValue |
| --- | --- | --- | --- |
| CCn1c(-c2nc3cc(C(=O)N4CCCC(N)C4)ccc3n2C)cc2ccccc21.Cl (stereo unspecified) | HEK-293T | % | 39 |
| CCCCCCNC(=O)Nc1ccc(S(=O)(=O)Nc2ccc(CCNC[C@H](O)COc3ccc(O)cc3)cc2)cc1 [L-755507] | HEK-293T | % | 30 |
| O=c1ccc2ccc(OCCCCN3CCN(c4cccc5sccc45)CC3)cc2[nH]1 [BREXPIPRAZOLE] | HEK-293T | % | 42 |

Give Population Apoptotic (%) (HEK-293T) of the following compound: Cc1cc(O)c(-c2ccc([C@@H](C)CN(C)C)cc2)c2c1[nH]c(=O)c1sccc12
68

Give Population Apoptotic (%) (HEK-293T) of the following compound: C=CCN1C[C@H](C(=O)N(CCCN(C)C)C(=O)NCC)C[C@@H]2c3cccc4[nH]cc(c34)C[C@H]21 [CABERGOLINE]
40

Give Population Apoptotic (%) (HEK-293T) of the following compound: COCCn1c(C)c(C)s/c1=N\C(=O)C1C(C)(C)C1(C)C
35

* * *

tested on: U2OS; experiment: Multiplex assay against U2OS; format: toxicity, cell-based; details: human, 24 h, 1 µM, compound concentration 1 uM, replicate 1
The entries below come with measured Population Pyknosed Nuclei (%) values attached.
Field format: number, assumed %, no unit text.

// worked examples, Population Pyknosed Nuclei (%) included
| compound | attributeMeasured | recordedValue |
| --- | --- | --- |
| C[C@@H]1CC(=O)Nc2cccc(-c3ccc4c(c3)c(-c3cnn(C)c3)nn4C)c2N1 | Population Pyknosed Nuclei (%) | 7 |
| Cc1cc(=O)n(C)c2cc(N3C(=O)CC[C@H](NS(=O)(=O)CC(C)C)[C@H]3c3ccc(Cl)cc3)ccc12 | Population Pyknosed Nuclei (%) | 11 |
| CN(C)C/C=C/C(=O)Nc1ccc(C(=O)N2CCCC(Nc3ncc(Cl)c(-c4c[nH]c5ccccc45)n3)C2)cc1 (stereo not drawn) | Population Pyknosed Nuclei (%) | 11 |

Consider now this further compound.
Name the recorded Population Pyknosed Nuclei (%) for Cc1cc(NC(=O)NCCN2CCC(O)(Cc3ccccc3)CC2)c2ccccc2n1 .
6

* * *

test system: HEK-293T; assay: Multiplex assay against HEK293T; assay type: toxicity, cell-based; conditions: human, 12 h, 10 µM, compound concentration 10 uM, replicate 2
Non-standard residues stand in square brackets, D forms with d. Residues, ends and D or L forms follow the SMILES beside them.
attributeMeasured: Population Mitotic Cells (%)
Field format: number, assumed %, no unit text.

// worked examples, Population Mitotic Cells (%) included
| molecule | Population Mitotic Cells (%) |
| --- | --- |
| C[C@@H]1CC(=O)Nc2cccc(-c3ccc4c(c3)c(-c3cnn(C)c3)nn4C)c2N1 | 62 |
| CN1CCC(C(=O)c2cccc(NC(=O)c3c(F)cc(F)cc3F)n2)CC1 | 46 |
| Cl.Cl.OCCOCCN1CCN(C(c2ccccc2)c2ccc(Cl)cc2)CC1 (configuration not stated) [HYDROXYZINE HYDROCHLORIDE] | 31 |
| O=C(NCCNCC(O)COc1ccc(O)cc1)N1CCOCC1.O=C(NCCNCC(O)COc1ccc(O)cc1)N1CCOCC1.O=C(O)/C=C/C(=O)O (configuration not stated) [XAMOTEROL FUMARATE] | 70 |
| O=c1nc2[nH]c3ccccc3nc-2c(=O)[nH]1 [ALLOXAZINE] | 40 |
| CC(F)(F)CN1CCOc2c(nn(-c3ccccc3Cl)c2-c2ccc(Cl)cc2)C1=O | 56 |
| CC(C)C[C@@H]1NC(=O)[C@@H](C(C)C)NC(=O)[C@@H]2CCCN2C(=O)[C@@H](CC(=O)O)NC(=O)[C@@H](Cc2c[nH]c3ccccc23)NC1=O [BQ-123] (cyclo(L[dW][dD]P[dV])) | 28 |
| COC(c1ccccc1)(c1ccccc1)[C@H](Oc1nc(C)cc(C)n1)C(=O)O [AMBRISENTAN] | 43 |

Name the recorded Population Mitotic Cells (%) for Cc1sc2c(c1C)C(c1ccc(Cl)cc1)=N[C@H](CC(=O)OC(C)(C)C)c1nnc(C)n1-2 .
33

Name the recorded Population Mitotic Cells (%) for COc1cc(OC2CCN(C(C)=O)CC2)ccc1C(=O)N1CCC(N2C(=O)OCc3ccccc32)CC1 .
32

Name the recorded Population Mitotic Cells (%) for Cc1cc(NC(=O)NCCN2CCC(O)(Cc3ccccc3)CC2)c2ccccc2n1 [PALOSURAN] .
38

Name the recorded Population Mitotic Cells (%) for COCCn1c(C)c(C)s/c1=N\C(=O)C1C(C)(C)C1(C)C .
46

Name the recorded Population Mitotic Cells (%) for CC(C)(C)c1ccc(CSc2cnn(C(C)(C)C)c(=O)c2Cl)cc1 [PYRIDABEN] .
37

Name the recorded Population Mitotic Cells (%) for OCCCNc1cc(-c2ccnc(Nc3cccc(Cl)c3)n2)ccn1 .
25

Name the recorded Population Mitotic Cells (%) for COc1cc(Nc2ncc3c(n2)-c2ccc(Cl)cc2C(c2c(F)cccc2OC)=NC3)ccc1C(=O)O [ALISERTIB] .
11

Name the recorded Population Mitotic Cells (%) for O=c1ccc2ccc(OCCCCN3CCN(c4cccc5sccc45)CC3)cc2[nH]1 [BREXPIPRAZOLE] .
14

Name the recorded Population Mitotic Cells (%) for Cc1c(Cc2ccc3ccccc3n2)c2cc(F)ccc2n1CC(=O)O [TIMAPIPRANT] .
66

* * *

system: U2OS; test: Multiplex assay against U2OS; format: toxicity, cell-based; conditions: human, 24 h, 10 µM, compound concentration 10 uM, replicate 2
attributeMeasured: Total Cell Count
// print number alone

| molecule | recordedValue |
| --- | --- |
| N[C@](CC1c2ccccc2Oc2ccccc21)(C(=O)O)[C@H]1C[C@@H]1C(=O)O | 164 |

Name the recorded Total Cell Count for C[C@@H]1CC(=O)Nc2cccc(-c3ccc4c(c3)c(-c3cnn(C)c3)nn4C)c2N1 .
97

Name the recorded Total Cell Count for Cc1c(Cc2ccc3ccccc3n2)c2cc(F)ccc2n1CC(=O)O [TIMAPIPRANT] .
152

* * *

test system: U2OS; experiment: Multiplex assay against U2OS; format: toxicity, cell-based; settings: human, 48 h, 10 µM, compound concentration 10 uM, replicate 1
attributeMeasured: Population Mitochondria Different-Phenotype (%)
Field format: number, assumed %, no unit text.

// worked examples, Population Mitochondria Different-Phenotype (%) included
| compound | recordedValue |
| --- | --- |
| COc1cc(C(=O)N2CC[C@@H](O)[C@@H](N)C2)cc2nc(-c3cc4ccccc4n3CC3CC3)n(C)c12.Cl | 65 |
| O=C(NCCNCC(O)COc1ccc(O)cc1)N1CCOCC1.O=C(NCCNCC(O)COc1ccc(O)cc1)N1CCOCC1.O=C(O)/C=C/C(=O)O (configuration not stated) [XAMOTEROL FUMARATE] | 1 |
| CCC(=O)OCC(=O)[C@@]1(OC(=O)CC)[C@@H](C)C[C@H]2[C@@H]3CCC4=CC(=O)C=C[C@]4(C)[C@@]3(Cl)[C@@H](O)C[C@@]21C [BECLOMETHASONE DIPROPIONATE] | 26 |
| Cc1cc(=O)n(C)c2cc(N3C(=O)CC[C@H](NS(=O)(=O)CC(C)C)[C@H]3c3ccc(Cl)cc3)ccc12 | 15 |
| CC(C)(O)C(=O)N1CCN(c2ccc(C(F)(F)F)c(C3=C(c4c[nH]c5ccccc45)C(=O)NC3=O)c2)CC1 | 16 |

Name the recorded Population Mitochondria Different-Phenotype (%) for Cc1cc(NC(=O)NCCN2CCC(O)(Cc3ccccc3)CC2)c2ccccc2n1 [PALOSURAN] .
2

Name the recorded Population Mitochondria Different-Phenotype (%) for COc1cc2nc(N3CCN(C(=O)c4ccco4)CC3)nc(N)c2cc1OC.Cl [PRAZOSIN HYDROCHLORIDE] .
2

* * *

test system: Fibroblast; assay: Multiplex assay against human fibroblast; assay type: toxicity, cell-based; settings: 12 h, 10 µM, compound concentration 10 uM, replicate 2
Non-standard residues stand in square brackets, D forms with d. Residues, ends and D or L forms follow the SMILES beside them.
Could you please mark yes (1) for values of Population Mitochondria Different-Phenotype (%) below 7% and no (0) for values at or above it?

Here are 2 compounds together with their reported answers.
| compound | system | classLabel |
| --- | --- | --- |
| Cl.Cl.OCCOCCN1CCN(C(c2ccccc2)c2ccc(Cl)cc2)CC1 (stereo not given) [HYDROXYZINE HYDROCHLORIDE] | Fibroblast | yes (1) |
| CN(C)C(=O)Cn1cc(-c2ccc(-c3nnc4ccccn34)cc2)cn1 | Fibroblast | no (0) |

Is 7% strictly greater than the compound's reported Population Mitochondria Different-Phenotype (%)? compound: CC(C)C[C@@H]1NC(=O)[C@@H](C(C)C)NC(=O)[C@@H]2CCCN2C(=O)[C@@H](CC(=O)O)NC(=O)[C@@H](Cc2c[nH]c3ccccc23)NC1=O [BQ-123] (cyclo(L[dW][dD]P[dV]))
yes (1)

Is 7% strictly greater than the compound's reported Population Mitochondria Different-Phenotype (%)? compound: CN1CCN(c2ccc(Nc3c4ccccc4nc4ccccc34)cc2)CC1.Cl.Cl.O
no (0)

Is 7% strictly greater than the compound's reported Population Mitochondria Different-Phenotype (%)? compound: COCCn1c(C)c(C)s/c1=N\C(=O)C1C(C)(C)C1(C)C
no (0)

Is 7% strictly greater than the compound's reported Population Mitochondria Different-Phenotype (%)? compound: CCn1c(-c2nc3cc(C(=O)N4CCCC(N)C4)ccc3n2C)cc2ccccc21.Cl (stereo not given)
no (0)

Is 7% strictly greater than the compound's reported Population Mitochondria Different-Phenotype (%)? compound: Cc1ccc(OCC(O)C(C)NC(C)C)c2c1CCC2.Cl (stereo not given)
no (0)

Is 7% strictly greater than the compound's reported Population Mitochondria Different-Phenotype (%)? compound: C[C@H](NC(=O)CNC(=O)c1cccc(Cl)c1)c1ccccc1
yes (1)

Is 7% strictly greater than the compound's reported Population Mitochondria Different-Phenotype (%)? compound: C=CCN1C[C@H](C(=O)N(CCCN(C)C)C(=O)NCC)C[C@@H]2c3cccc4[nH]cc(c34)C[C@H]21
no (0)

Is 7% strictly greater than the compound's reported Population Mitochondria Different-Phenotype (%)? compound: COc1c(Nc2ccc(S(C)(=O)=O)nc2C)ncnc1OC1CCN(C(=O)OC(C)C)CC1
no (0)
